System: NK-YS (IL-2 2.5 ng/mL)
Experiment: drug sensitivity score (DSS) (DSS units); higher = more sensitive; extreme values may be limits of the assay
Test conditions: 72 h

| Molecule | drug sensitivity score |
| --- | --- |
| Nc1cccc2c1C(=O)N(C1CCC(=O)NC1=O)C2=O (stereo not drawn) [Pomalidomide] (max concentration tested 10000 nM) | 0 |
| COc1ccc(-c2nc(N3CCOCC3)c3sc(CN(C)c4ncc(C(=O)NO)cn4)cc3n2)cn1 [CUDC-907] (max concentration tested 10000 nM) | 37.1 |
| CCNC(=O)Nc1ccc(-c2nc3c(c(N4CCOC[C@@H]4C)n2)CCN(C2COC2)C3)cc1 [RG-7603] (max concentration tested 2500 nM) | 4.64 |

Data origin, for the record: the supplement of paper PMC5908809
